Value source: patent US20100093613A1

Test system: Bronchial epithelial cells
ASSAY COMMENT: BioMAP BE3C system (IL-1β + TNF-α + IFN-γ), scoring of readout parameters; also: key: positive score (score of 1); negative score (score of 0)
Type: cell-based, human
PROPERTY MEASURED: HLA-DR score
Number only, please.

Worked set:
| COMPOUND | PROPERTY MEASURED | RECORDED RESULT |
| --- | --- | --- |
| C=C(NC(=O)C(=C)NC(=O)c1csc(C2=N[C@@H]3c4csc(n4)[C@H]4NC(=O)c5csc(n5)[C@H]([C@](C)(O)[C@@H](C)O)NC(=O)[C@H]5CSC(=N5)/C(=C/C)NC(=O)[C@H]([C@@H](C)O)NC(=O)c5csc(n5)[C@]3(CC2)NC(=O)[C@H](C)NC(=O)C(=C)NC(=O)[C@H](C)NC(=O)[C@H]([C@@H](C)CC)N[C@@H]2C=Cc3c([C@H](C)O)cc(nc3[C@H]2O)C(=O)O[C@@H]4C)n1)C(N)=O | HLA-DR score | 0 |
| Cc1[nH]ccc2c1[nH]c1cc(=O)ccc12 | HLA-DR score | 0 |
| COC(=O)Nc1nc2ccc(SC(C)C)cc2[nH]1 | HLA-DR score | 0 |

Reported HLA-DR score, compound CCCCN(CCCC)CCC(O)c1cc2c(Cl)cc(Cl)cc2c2cc(C(F)(F)F)ccc12 (stereo not drawn) : ____ 0

Reported HLA-DR score, compound `COc1cc2c(c(OC)c1OC)-c1ccc(OC)c(=O)cc1[C@@H](NC(C)=O)CC2` : ____ 0

Reported HLA-DR score, compound `Cn1cnc([N+](=O)[O-])c1Sc1ncnc2nc[nH]c12` : ____ 0
